- subject_of_test: T1, TNFR1 (Homo sapiens, UniProt P19438)
- T1 chain: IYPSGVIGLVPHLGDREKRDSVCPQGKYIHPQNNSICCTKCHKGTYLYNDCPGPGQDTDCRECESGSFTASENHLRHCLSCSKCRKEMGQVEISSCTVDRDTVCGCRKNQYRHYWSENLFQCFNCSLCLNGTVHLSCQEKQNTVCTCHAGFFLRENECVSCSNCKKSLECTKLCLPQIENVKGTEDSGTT
- assay_method_text: yeast display SC50
recorded_endpoint: apparent Kd (screen) (nM)

(1) S77A (designed binder) SMEEEVEKAAKEYEKKKKEAIEKHLEKLKAKDKEAAERFLKELEEAAKEYAKDEAKTMSEEEAKRRAKKYKEKVLLAELSEEEQKEIKEAEEKLVRTILKYVEEAAK
(2) L79F (designed binder) SMEEEVEKAAKEYEKKKKEAIEKHLEKLKAKDKEAAERFLKELEEAAKEYAKDEAKTMSEEEAKRRAKKYKEKVLLSEFSEEEQKEIKEAEEKLVRTILKYVEEAAK
Inquiry: Which has the smaller recorded apparent Kd (screen), 1 or 2 ? Which one? Tell me its label.
Reply text: 1
